Values were extracted from ChEMBL document CHEMBL5441451.

# Procedure Details: Functional metabolic assay to measure dose dependent changes in cell viability from drug treatment in iPSC-Pneumocyte cells. The cells are seeded then incubated in MTT (3-[4,5-dimethylthiazol-2-yl]-2,5- diphenyltetrazolium bromide) labeling reagent and SDS. Absorbance is measured at 560 and 750 nm and analyzed by Gen5 software. The assay has been performed by Icahn School of Medicine at Mount Sinai.
# Assay type: toxicity, cell-based
# Condition Info: human, iPSC-Pneumocyte cells
Measured CC50, listed per entry for reference.

# Smi, CC50
rows = [
    ("CC(C)[C@@H](Nc1ncnc2[nH]c(C(N)=O)cc12)c1ccc2c(c1)OCCO2", "> 50 µM"),
    ("CC(C)[C@@H](Nc1ncnc2[nH]c(C(=O)N[C@@H]3CCN(C)C3)cc12)c1ccc2c(c1)S(=O)(=O)CCC2", "< 0.206 µM"),
    ("CNC(=O)c1c[nH]c2ncnc(N[C@H](c3ccc4c(c3)S(=O)(=O)CCC4)C(C)C)c12", "> 50 µM"),
]

---

Measured CC10, listed per entry for reference.
# Procedure Details: Functional metabolic assay to measure dose dependent changes in cell viability from drug treatment in iPSC-Pneumocyte cells. The cells are seeded then incubated in MTT (3-[4,5-dimethylthiazol-2-yl]-2,5- diphenyltetrazolium bromide) labeling reagent and SDS. Absorbance is measured at 560 and 750 nm and analyzed by Gen5 software. The assay has been performed by Icahn School of Medicine at Mount Sinai.
# Type: toxicity, cell-based
# Condition Info: human, pneumocyte
Measured Parameter: CC10

# Smi, Measured Parameter, Readout Value
measured = [
    ("CC(C)[C@@H](Nc1ncnc2[nH]c(-c3cnn(C)n3)cc12)c1ccc2c(c1)OCCO2", "CC10", "< 0.206 µM"),
    ("CNC(=O)Cn1cc(-c2cc3c(N[C@@H](c4ccc5c(c4)S(=O)(=O)CCC5)C(C)C)ncnc3[nH]2)cn1", "CC10", "1.528 µM"),
    ("CC(C)[C@@H](Nc1ncnc2[nH]c(-c3cnn(C)c3C#N)cc12)c1ccc2c(n1)OCCO2", "CC10", "5.176 µM"),
    ("CNC(=O)Cn1cc(-c2cc3c(N[C@H](c4ccc5c(c4)S(=O)(=O)CCC5)C(C)C)ncnc3[nH]2)cn1", "CC10", "> 50 µM"),
    ("CNCc1cc(-c2cc3c(N[C@@H](c4ccc5c(c4)S(=O)(=O)NCC5)C(C)C)ncnc3[nH]2)co1", "CC10", "> 50 µM"),
    ("CC(C)[C@@H](Nc1ncnc2[nH]c(-c3cnn(C)c3C#N)cc12)c1ccc2c(c1)S(=O)(=O)CCC2", "CC10", "> 50 µM"),
    ("CC(C)[C@@H](Nc1ncnc2[nH]c(-c3cnn(CC(N)=O)c3)cc12)c1ccc2c(c1)OCCO2", "CC10", "> 50 µM"),
    ("CNC(=O)c1c[nH]c2ncnc(N[C@H](c3ccc4c(c3)S(=O)(=O)CCC4)C(C)C)c12", "CC10", "> 50 µM"),
    ("CC(C)[C@@H](Nc1ncnc2[nH]c(C(=O)N[C@@H]3CCN(C)C3)cc12)c1ccc2c(c1)S(=O)(=O)CCC2", "CC10", "< 0.206 µM"),
    ("CC(C)[C@@H](Nc1ncnc2[nH]c(C(=O)N[C@H]3CCN(C)C3)cc12)c1ccc2c(c1)S(=O)(=O)CCC2", "CC10", "> 50 µM"),
]
